# target under test: T1, biotinylated Avi-UPF2-MIF4GIII (UniProt Q9HAU5 761-1054, biotin on the Avi tag (BirA))
# T1 construct: UPF2, third middle-domain of eukaryotic initiation factor 4G (MIF4GIII), residues 761-1054; Avi tag added by site-directed mutagenesis to UPF2-MIF4GIII; also called immobilized UPF2-MIF4GIII; source: E. coli BL21 Rosetta2(DE3), purified (Ni-NTA, TEV, reverse IMAC, ion exchange); biotinylated with BirA, SEC
# T1 sequence (looked up): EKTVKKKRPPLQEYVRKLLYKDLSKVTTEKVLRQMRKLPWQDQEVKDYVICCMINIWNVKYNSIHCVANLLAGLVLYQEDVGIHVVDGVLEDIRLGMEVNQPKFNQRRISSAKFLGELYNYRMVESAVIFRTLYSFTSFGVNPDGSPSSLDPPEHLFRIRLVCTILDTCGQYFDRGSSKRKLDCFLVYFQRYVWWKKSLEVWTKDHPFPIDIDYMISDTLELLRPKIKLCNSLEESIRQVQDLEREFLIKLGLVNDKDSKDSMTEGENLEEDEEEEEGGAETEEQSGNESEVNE
# method summary: SPR; 350 RU biotinylated Avi-UPF2-MIF4GIII immobilised on an SA chip (Biacore T200); UPF3B and UPF3A constructs injected; 15°C; 300 mM NaCl, 25 mM HEPES pH 7.4, 0.25 mM TCEP, 0.05% Tween-20; global fit, 1:1 binding model
# conditions used: both partners purified
// values below are reported pKd
Reminder that pKd is minus the log10 of a molar concentration.

Task: What value of measured pKd is listed for UPF3B-41–189 Y160A (domain or fragment, human, UniProt Q9BZI7 41-189, looked up, UPF3B, human, residues 41-189 with Y160A; source: E. coli BL21 Rosetta2(DE3), purified (Ni-NTA, TEV, reverse IMAC, ion exchange)) DRNKEKKEALSKVVIRRLPPTLTKEQLQEHLQPMPEHDYFEFFSNDTSLYPHMYARAYINFKNQEDIILFRDRFDGYVFLDNKGQEYPAIVEFAPFQKAAKKKTKKRDTKVGTIDDDPEARKFLESYATDNEKMTSTPETLLEEIEAKN ?
Output: 7.06
